Source: patent US6677435B2

Test system: human prostate cancer cell line LNCap
measurement-protocol: Cell growth inhibition assay (lactate dehydrogenase colour reaction), LNCap
Assay type: cell-based
recorded-conditions: 120 h after drug addition
readout-kind: IC50 (µM)

• COc1cccc2c1C(=O)c1c(O)c3c(c(O)c1C2=O)C[C@@](O)(C(=O)CO)C[C@@H]3O[C@H]1C[C@H](N)[C@H](O)[C@H](C)O1 = 0.2

====

System: human prostate cancer cell line LNCap
measurement-protocol: Cell growth inhibition assay (lactate dehydrogenase colour reaction), LNCap
Assay type: cell-based
recorded-conditions: 72 h after drug addition, 50% decrease in cell density vs untreated control
readout-kind: IC50 (µM)

• COc1cccc2c1C(=O)c1c(O)c3c(c(O)c1C2=O)C[C@@](O)(C(=O)CO)C[C@@H]3O[C@H]1C[C@H](N)[C@H](O)[C@H](C)O1 [doxorubicin] = 0.4

====

Test system: HT29 human colon carcinoma cells
measurement-protocol: Cell growth inhibition assay (lactate dehydrogenase colour reaction), HT29
Assay type: cell-based
recorded-conditions: HT-29, 120 h after drug addition
readout-kind: IC50 (µM)

* COc1cccc2c1C(=O)c1c(O)c3c(c(O)c1C2=O)C[C@@](O)(C(=O)CO)C[C@@H]3O[C@H]1C[C@H](N)[C@H](O)[C@H](C)O1 | 2.5
